- Assay: pH of aqueous solution after production (Test Example 2)
- Type: physicochemical
- Condition set: 100 mg dissolved in 10 mL of decarbonated water; pH reproducibility after production; hydrochloride
Measured quantity: pH
When you answer, write just the number.

Example cases with answers are listed next.
CN(C(=O)/C=C/c1ccoc1)[C@@H]1CC[C@@]2(O)[C@H]3Cc4ccc(O)c5c4[C@@]2(CCN3CC2CC2)[C@H]1O5.Cl [Reference Example 1] :: 3.7
CN(C(=O)/C=C/c1ccoc1)[C@@H]1CC[C@@]2(O)[C@H]3Cc4ccc(O)c5c4[C@@]2(CCN3CC2CC2)[C@H]1O5.Cl [Reference Example 3] :: 3.5
CN(C(=O)/C=C/c1ccoc1)[C@@H]1CC[C@@]2(O)[C@H]3Cc4ccc(O)c5c4[C@@]2(CCN3CC2CC2)[C@H]1O5.Cl [Reference Example 2] :: 4.7
CN(C(=O)/C=C/c1ccoc1)[C@@H]1CC[C@@]2(O)[C@H]3Cc4ccc(O)c5c4[C@@]2(CCN3CC2CC2)[C@H]1O5.Cl [Example 1] :: 5.8

Query: Reported pH, compound CN(C(=O)/C=C/c1ccoc1)[C@@H]1CC[C@@]2(O)[C@H]3Cc4ccc(O)c5c4[C@@]2(CCN3CC2CC2)[C@H]1O5.Cl [Example 2] : ____
Result: 5.4

Query: pH for CN(C(=O)/C=C/c1ccoc1)[C@@H]1CC[C@@]2(O)[C@H]3Cc4ccc(O)c5c4[C@@]2(CCN3CC2CC2)[C@H]1O5.Cl [Example 3] ?
Result: 5.6
